Assay: The Elimination half-life was measured in dogs after intravenous administration of 1 mg/kg dose
Assay type: ADME, organism-based, Canis lupus familiaris
Design: dose 1 mg/kg, route intravenous
Conditions: dog, in vivo
Here the recorded half-life is given for each entry.
VALUE_TYPE: half-life (h)

CCCCN(CC)c1nc(C)nc2c1nnn2-c1ccc(C(C)C)cc1Br: 26
COCCN(CCOC)c1nc(C)nc2c1nnn2-c1ccc(C(C)C)cc1Br: 33.2
CCC(COC)Nc1nc(C)nc2c1nnn2-c1ccc(C(C)C)cc1Br (stereo in doubt; 4x): 19
COCCN(Cc1ccccc1)c1nc(C)nc2c1nnn2-c1ccc(C(C)C)cc1Br: 46.7
